Assay protocol: NCI Yeast Anticancer Drug Screen. Data for the sgs1 mgt1 strain (AID 161)
Test conditions: S. cerevisiae sgs1 mgt1 strain, at 50.0 µM, hits give high values
Compounds without any hit were thinned out: in the full panel of roughly 79,000, 15% have a hit.
Please use YES whenever growth inhibition is not below 90%, and NO whenever it is.

Consider the following illustrative entries.
[
  {
    "Compound": "COC(=O)c1nnn(-c2ccc(S(N)(=O)=O)cc2)c1C(=O)c1ccc(Cl)c(Cl)c1",
    "Discrete label": "YES"
  },
  {
    "Compound": "O=C(C(/C=N/C(=S)NCc1ccccc1)=C(/O)c1ccccc1)c1ccccc1",
    "Discrete label": "YES"
  },
  {
    "Compound": "Cc1c2cc[n+]([O-])cc2c(C)c2c1oc1ccccc12",
    "Discrete label": "NO"
  },
  {
    "Compound": "N#C/C(=C1C=C/C(=N/O)c2ccccc2/1)c1ccc(Cl)cc1",
    "Discrete label": "NO"
  }
]

Query block: Please tell me: is the compound CCOC(=O)C(=Cn1c(=S)[nH]c2ccc([N+](=O)[O-])cc21)C(=O)OCC at or over 90% in terms of growth inhibition?
Result block: NO

Query block: Please tell me: is the compound C/C(=N/NC(=S)Nc1cccc(Cl)c1)c1ccccn1 at or over 90% in terms of growth inhibition?
Result block: NO
